Cited source for all entries: ChEMBL document CHEMBL3616442

Test system: HepG2
experiment.description: Cytotoxicity against human HepG2 cells after 96 hrs by MTT assay
Assay type: functional, cell-based
condition.label: HepG2, 96 h
value.type: EC50 (µM)
One number for each entry, in µM.

Worked cases, answers included:
record.smiles: CCOC(=O)/C(=C/c1c(-c2ccccc2)[nH]c2ccccc12)C(=O)c1ccccc1
system.under.test: HepG2
value.type: EC50
reported.measurement: 31

record.smiles: CCOC(=O)/C(=C\c1c(-c2ccccc2)[nH]c2ccccc12)C(C)=O
system.under.test: HepG2
value.type: EC50
reported.measurement: 19

record.smiles: CC(=O)/C(=C/c1c(-c2ccccc2)[nH]c2ccccc12)C(=O)c1ccccc1
system.under.test: HepG2
value.type: EC50
reported.measurement: 79

record.smiles: COc1ccc(-c2[nH]c3ccc(OC)cc3c2/C=C(\C#N)S(=O)(=O)c2ccccc2)cc1
system.under.test: HepG2
value.type: EC50
reported.measurement: 6.4

record.smiles: COc1cccc2c1C(=O)c1c(O)c3c(c(O)c1C2=O)C[C@@](O)(C(=O)CO)C[C@@H]3O[C@H]1C[C@H](N)[C@H](O)[C@H](C)O1
system.under.test: HepG2
value.type: EC50
reported.measurement: 0.3

record.smiles: CCOC(=O)/C(=C/c1c(-c2ccccc2)[nH]c2ccccc12)C(=O)c1ccc([N+](=O)[O-])cc1
system.under.test: HepG2
value.type: EC50
reported.measurement: 28

record.smiles: COc1ccc2[nH]c(-c3ccccc3)c(/C=C(\C#N)S(=O)(=O)c3ccccc3)c2c1
system.under.test: HepG2
value.type: EC50
reported.measurement: 9.6

record.smiles: N#C/C(=C\c1c(-c2ccccc2)[nH]c2ccccc12)C(=O)c1cccs1
system.under.test: HepG2
value.type: EC50
reported.measurement: 25

record.smiles: COc1ccc(-c2[nH]c3ccccc3c2/C=C(\C#N)S(=O)(=O)c2ccccc2)cc1
system.under.test: HepG2
value.type: EC50
reported.measurement: 11

record.smiles: N#C/C(=C\c1c(-c2ccccc2)[nH]c2ccccc12)C(=O)c1ccc(Cl)cc1
system.under.test: HepG2
value.type: EC50
reported.measurement: 37

Can you give me EC50 for all of these, one by one?
1. O=C(/C(=C\c1c(-c2ccccc2)[nH]c2ccccc12)C(=O)C(F)(F)F)c1ccco1
2. COCCOC(=O)/C(C#N)=C/c1c(-c2ccccc2)[nH]c2ccccc12

1: 16; 2: 85
